TARGET_DESC: GnRH-R (membranes of human prostate cancer cells) (Homo sapiens, UniProt P30968)
Construct: human prostate cancer cells were obtained from a patient at the time of initial surgical treatment; from tissue; host or cells: human prostate cancer specimen from a patient at surgery; membrane homogenates
Sequence (P30968 whole entry): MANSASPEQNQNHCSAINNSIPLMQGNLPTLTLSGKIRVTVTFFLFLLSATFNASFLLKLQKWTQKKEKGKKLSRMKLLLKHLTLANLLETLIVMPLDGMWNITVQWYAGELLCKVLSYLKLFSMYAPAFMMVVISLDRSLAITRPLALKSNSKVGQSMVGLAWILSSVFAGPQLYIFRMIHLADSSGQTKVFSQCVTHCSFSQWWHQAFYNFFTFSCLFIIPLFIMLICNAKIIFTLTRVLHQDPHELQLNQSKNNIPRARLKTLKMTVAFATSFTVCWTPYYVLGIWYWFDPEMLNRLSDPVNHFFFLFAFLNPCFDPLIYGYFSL
ASSAY_METHOD_TEXT: Radioligand binding (ligand competition) assay, displacement of [125I]-[6D-Trp]-GnRH-I, human prostate cancer membranes
SETTINGS: membranes of human prostate cancer cells; read-out: IC50 Values, inhibition of [125I]-[6D-Trp]-GnRH-I binding, Human Prostate Cancer
Square brackets hold non-standard residues; d marks the D form. Peptide text beside a SMILES is read from it. * marks the point of attachment. X1 = C=CC1=C(C)c2cc3[nH]c(cc4nc(cc5[nH]c(cc1n2)c(C)c5CCC(=O)O)C(CCC(=O)*)=C4C)c(C)c3C=C; pGlu = O=C1CC[C@@H](C(=O)O)N1; Butyryl = CCCC(=O)*
MEASURED_PARAMETER: IC50 (µM)
Number in µM, nothing else.

Record excerpt, results attached:
>  <MOLECULE>
CCCC(=O)NCCCC[C@H](NC(=O)[C@H](Cc1c[nH]c2ccccc12)NC(=O)[C@H](Cc1c[nH]cn1)NC(=O)[C@@H]1CCC(=O)N1)C(=O)N[C@@H](Cc1c[nH]cn1)C(=O)N[C@@H](CC(=O)OC)C(=O)N[C@@H](Cc1c[nH]c2ccccc12)C(=O)N[C@@H](CCCCN)C(=O)N1CCC[C@H]1C(=O)NCC(N)=O [compound 4, GnRH-III[^4Lys(Bu), ^6Asp(OMe)]]

>  <UNIT_INFO>
µM

>  <IC50>
0.00656

$$$$
>  <MOLECULE>
C=CC1=C(C)c2cc3[nH]c(cc4nc(cc5[nH]c(cc1n2)c(C)c5CCC(=O)O)C(CCC(=O)NCCCC[C@@H](NC(=O)[C@H](Cc1ccc(O)cc1)NC(=O)[C@H](CCCCNC(=O)CCC)NC(=O)[C@H](Cc1c[nH]c2ccccc12)NC(=O)[C@H](Cc1c[nH]cn1)NC(=O)[C@@H]1CCC(=O)N1)C(=O)N[C@@H](CC(C)C)C(=O)N[C@@H](CCCNC(=N)N)C(=O)N1CCC[C@H]1C(=O)NCC(N)=O)=C4C)c(C)c3C=C [compound 6, GnRH-I[^4Lys(Bu), ^6D-Lys(PpIX)]] ([pGlu]HWK(Butyryl)Y[dK](X1)LRPG-NH2)

>  <UNIT_INFO>
µM

>  <IC50>
0.0418

$$$$

// switching to the query molecule
// fetch GnRH-R (membranes of human prostate cancer cells) (Homo sapiens, UniProt P30968) IC50 for C=CC1=C(C)c2cc3[nH]c(cc4nc(cc5[nH]c(cc1n2)c(C)c5CCC(=O)O)C(CCC(=O)NCCCC[C@@H](NC(=O)[C@H](Cc1ccc(O)cc1)NC(=O)[C@H](CO)NC(=O)[C@H](Cc1c[nH]c2ccccc12)NC(=O)[C@H](Cc1c[nH]cn1)NC(=O)[C@@H]1CCC(=O)N1)C(=O)N[C@@H](CC(C)C)C(=O)N[C@@H](CCCNC(=N)N)C(=O)N1CCC[C@H]1C(=O)NCC(N)=O)=C4C)c(C)c3C=C [compound 5, GnRH-I[^6D-Lys(PpIX)]]
0.0427

The reported numbers originate from paper PMC6829278.
